Target: human GOAT (Homo sapiens)
Assay: Determination of hGOAT activity in HEK293 cells after incubation with test compound (acyl-ghrelin ELISA)
Conditions: HEK293 cells stably transfected with preproghrelin and human GOAT; octanoate-BSA 100 μM, 5 hours incubation; acyl-ghrelin in medium by ELISA; 8 compound concentrations
Would you kindly list IC50 for each of these molecules?
// return numeric value only (unit: nM, not printed)

Give measured IC50 for "Cc1nc2nonc2c(N)c1CN1CCN(S(=O)(=O)C(F)F)CC1" (human GOAT (Homo sapiens)). 0.49

State measured IC50 of the molecule Cc1nc2nonc2c(N)c1CN1CCC(O)(C(F)(F)F)C1 (stereo not drawn) with human GOAT (Homo sapiens). 1.1

# lookup: human GOAT (Homo sapiens) IC50, key = Cc1nc2nonc2c(N)c1CN1CCC(C(C)(C)O)C1 (stereo not drawn) 5

----------
Target: human GOAT (Homo sapiens, UniProt Q96T53)
Sequence (Q96T53 whole entry): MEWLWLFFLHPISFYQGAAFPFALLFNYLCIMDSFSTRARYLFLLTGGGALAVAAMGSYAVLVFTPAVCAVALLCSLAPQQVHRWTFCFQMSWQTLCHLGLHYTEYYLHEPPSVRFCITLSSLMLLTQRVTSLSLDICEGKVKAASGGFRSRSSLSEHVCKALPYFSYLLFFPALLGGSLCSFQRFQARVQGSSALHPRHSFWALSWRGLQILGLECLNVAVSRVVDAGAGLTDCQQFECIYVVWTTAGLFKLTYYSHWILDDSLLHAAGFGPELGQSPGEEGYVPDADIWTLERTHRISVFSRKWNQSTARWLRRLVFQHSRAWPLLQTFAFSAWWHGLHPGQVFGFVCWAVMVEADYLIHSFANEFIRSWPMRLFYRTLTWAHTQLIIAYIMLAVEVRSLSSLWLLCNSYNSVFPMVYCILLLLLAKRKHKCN
Test: Determination of hGOAT activity in HEK293 cells after incubation with test compound (acyl-ghrelin ELISA)
Settings: HEK293 cells stably transfected with preproghrelin and human GOAT; octanoate-BSA 100 μM, 5 hours incubation; acyl-ghrelin in medium by ELISA; 8 compound concentrations
endpoint_name: pIC50
Answer as the number alone; pIC50 is minus log10 of concentration in mol/L.

State, in one line, measured pIC50 of "Cc1nc2nonc2c(N)c1CN1CCC(C(F)F)CC1" 8.89

Supply recorded pIC50 for "Cc1nc2nonc2c(N)c1CN1CCN(S(=O)(=O)C(F)(F)F)CC1" here. 9.19

Give reported pIC50 value for "Cc1nc2nonc2c(N)c1CN1CCC(S(C)(=O)=O)CC1" 8.39

Please report the measured pIC50 for "Cc1nc2nonc2c(N)c1CN1CCC(F)(F)C1" 8.15

Determine its reported pIC50: "Cc1nc2nonc2c(N)c1CN1CC(C(F)(F)F)C1" 8.72

Indicate its recorded pIC50; the molecule in question is "Cc1nc2nonc2c(N)c1CN1CCC(OC(F)(F)F)CC1" 9.25

Note down pIC50 recorded for Cc1nc2nonc2c(N)c1CN1CCC(C(F)(F)F)C1 (centres unmarked) 9.25

Please report pIC50 for the following molecule: Cc1nc2nonc2c(N)c1CN1CCC(c2cccc(C(F)(F)F)c2)C1 (centres unmarked) 8.85

// Input: Cc1nc2nonc2c(N)c1CN1CCCC(C(F)(F)F)C1 (centres unmarked) . Output its pIC50 only. 8.77

Give the reported value of pIC50 for this record: "Cc1nc2nonc2c(N)c1CN1CCC(C#N)CC1" 8.44

For the molecule "Cc1nc2nonc2c(N)c1CN1CCN(S(C)(=O)=O)CC1" , give its reported pIC50. 8.28

Report pIC50, nothing else, for this molecule: "COC(=O)N1CCN(Cc2c(C)nc3nonc3c2N)CC1" 8.19

For the molecule "Cc1nc2nonc2c(N)c1CN1CCC(F)(F)CC1" , report pIC50. 8.66

Give me measured pIC50, please, for this molecule: "Cc1nc2nonc2c(N)c1CN1CCN(C(=O)C(F)(F)F)CC1" 8.24

Entry "Cc1nc2nonc2c(N)c1CN1CCN(S(=O)(=O)C2CC2)CC1" needs its pIC50 filled in; supply it. 8.74

Tell me its pIC50 given "Cc1nc2nonc2c(N)c1CN1CCC(C(F)(F)F)CC1" as the entry. 8.89

Answer with reported pIC50 of Cc1nc2nonc2c(N)c1CN1CCOC(C)(c2ccc(F)cc2)C1 (centres unmarked) 8.40

Complete the entry with pIC50 for "Cc1nc2nonc2c(N)c1CN1CCN(C(=O)C2CC2)CC1" 8.38

Using known records, supply pIC50 for "Cc1nc2nonc2c(N)c1CN1CCCC(F)(F)C1" 8.13

Identify measured pIC50 corresponding to "Cc1nc2nonc2c(N)c1CN1CCN(C(=O)OC(C)(C)C)CC1" 9.37
